TARGET UNDER TEST: hERG (KCNH2) (Homo sapiens, UniProt Q12809)
Sequence (Q12809 whole entry): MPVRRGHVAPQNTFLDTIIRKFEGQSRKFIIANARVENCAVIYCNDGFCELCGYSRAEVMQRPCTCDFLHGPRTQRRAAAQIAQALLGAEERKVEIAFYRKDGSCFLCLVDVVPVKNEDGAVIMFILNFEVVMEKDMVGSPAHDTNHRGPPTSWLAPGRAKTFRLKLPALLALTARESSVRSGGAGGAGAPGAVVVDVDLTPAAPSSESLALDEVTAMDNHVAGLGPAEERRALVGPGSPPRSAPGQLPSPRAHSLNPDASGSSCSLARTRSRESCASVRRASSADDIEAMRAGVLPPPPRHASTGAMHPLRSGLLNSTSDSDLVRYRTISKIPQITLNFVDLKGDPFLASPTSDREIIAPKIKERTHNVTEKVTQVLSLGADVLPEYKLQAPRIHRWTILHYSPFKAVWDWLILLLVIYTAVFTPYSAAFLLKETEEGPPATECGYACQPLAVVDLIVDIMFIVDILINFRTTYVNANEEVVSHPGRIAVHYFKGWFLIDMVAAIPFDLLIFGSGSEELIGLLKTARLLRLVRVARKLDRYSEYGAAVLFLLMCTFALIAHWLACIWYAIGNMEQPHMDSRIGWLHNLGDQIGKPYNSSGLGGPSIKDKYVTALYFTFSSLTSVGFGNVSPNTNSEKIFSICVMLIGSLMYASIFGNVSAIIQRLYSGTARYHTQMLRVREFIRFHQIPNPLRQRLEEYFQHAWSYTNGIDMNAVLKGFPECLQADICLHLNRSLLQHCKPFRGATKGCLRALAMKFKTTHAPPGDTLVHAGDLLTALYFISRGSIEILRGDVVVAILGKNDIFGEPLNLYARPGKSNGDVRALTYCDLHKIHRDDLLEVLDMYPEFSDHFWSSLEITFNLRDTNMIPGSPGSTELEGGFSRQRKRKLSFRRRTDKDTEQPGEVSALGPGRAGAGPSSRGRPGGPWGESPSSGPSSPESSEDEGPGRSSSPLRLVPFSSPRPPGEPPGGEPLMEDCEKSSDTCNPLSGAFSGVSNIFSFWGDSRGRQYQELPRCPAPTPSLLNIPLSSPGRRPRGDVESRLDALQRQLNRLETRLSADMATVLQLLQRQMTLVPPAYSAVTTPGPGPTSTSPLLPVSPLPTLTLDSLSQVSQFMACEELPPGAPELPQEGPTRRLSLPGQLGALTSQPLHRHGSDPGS
ASSAY DETAILS: Displacement of [35S]-labeled MK499 from hERG at 10 uM
CONDITION DETAILS: probe [35S]-MK499
RECORDED ENDPOINT: inhibition at 10 µM (%)
Answer format: numeric, % implied, no suffix.

Solved entries (count: 5):
COMPOUND	QUANTITATIVE RESULT
O=C(NCc1ccccc1)[C@@H]1CCC[C@H]1C(O)CCc1cccc(OC(F)(F)F)c1 (relative stereo)	89
O=C(NCc1ccccc1)[C@@H]1CCC[C@H]1C(O)CCc1ccccc1OC(F)(F)F (relative stereo)	92
CN(Cc1ccc(-c2ccccc2S(N)(=O)=O)cc1)C(=O)[C@@H]1CCC[C@H]1C(=O)NCc1ccc(OC(F)(F)F)cc1 (relative stereo)	54
OC(CCc1ccccc1)[C@@H]1CCC[C@H]1OCCc1cc(Cl)cc(Cl)c1 (relative stereo)	40
OC(CCc1ccccc1)[C@@H]1CCC[C@H]1COCc1ccc(OC(F)(F)F)cc1 (relative stereo)	65

// query # returns recorded inhibition at 10 µM (system: hERG (KCNH2) (Homo sapiens, UniProt Q12809)) for O=C(NCc1cc(Cl)cc(Cl)c1)[C@@H]1CCC[C@H]1C(O)CCc1ccccc1OC(F)(F)F (relative stereo)
// result 73

// query Now the compound COc1ccc(CCC(O)[C@@H]2CCC[C@H]2C(=O)NCc2cc(Cl)cc(Cl)c2)cc1 (relative stereo)
// result 70

// query Now the compound O=C(NC[C@@H]1CCC[C@H]1C(O)CCc1ccccc1)c1cc(Cl)cc(Cl)c1 (relative stereo)
// result 79
